target: E200 peptide; assay: Biacore, PEP2-Fc on E200
MEASURED ATTRIBUTE: pKd
pKd is a log-scale quantity: -log10 of the concentration expressed in molar.

INPUT: I have this binder here, PEP2-2-2 Fc (Fc fusion, not shown: a dimerising Fc or GST) EVQLLESGGGLVQPGGSLRLSCAASGFTFRNHDMGWVRQAPGKGLEWVSAISGSGGSTYYADSVKGRFTISRDNSKNTLYLQMNSLRAEDTAVYYCAEPKPMDTEFDYRSQGTLVTVSS , and I need its recorded pKd.
OUTPUT: 10.00

INPUT: I have this binder here, PEP2-472-1 Fc (Fc fusion, not shown: a dimerising Fc or GST) EVQLLESGGGLVQPGGSLRLSCAASGYTFPMKDMGWVRQAPGKGLEWVSAISGSGGGTYYADSVKGRFTISRDNSKNTLYLQMNSLRAEDTAVYYCAEPKPMDTEFDYRSQGTLVTVSS , and I need its recorded pKd.
OUTPUT: 10.05

INPUT: I have this binder here, PEP2-42 Fc (Fc fusion, not shown: a dimerising Fc or GST) EVQLLESGGGLVQPGGSLRLSCAASGFTFDNVEMSWVRQAPGKGLEWVSSIGSKGEDTYYADSVKGRFTISRDNSKNTLYLQMNSLRAEDTAVYYCAQTVNVPEPAFAYWGQGTLVTVSS , and I need its recorded pKd.
OUTPUT: 8.26

INPUT: I have this binder here, PEP2-247-2 Fc (Fc fusion, not shown: a dimerising Fc or GST) EVQLLESGGGLVQPGGSLRLSCAASGFTFRNHDMGWVRQAPGKGLEWVSAISGSGGSTYYANSVKGRFTISRDNSKNTLYLQMNSLRAEDTAVYYCAEPSHFDRPFDYRSQGTLVTVSS , and I need its recorded pKd.
OUTPUT: 9.35

INPUT: I have this binder here, PEP2-2-1-1 Fc (Fc fusion, not shown: a dimerising Fc or GST) EVQLLESGGGLVQPGGSLRLSCAASGFTFRNHDMGWVRQAPGKGLEWVSAISGSGGSTYYADSVKGRFTISRDNSKNTLYLQMNSLRAEDTAVYYCAEPKPMDTEFDYRSPGTLVTVSS , and I need its recorded pKd.
OUTPUT: 10.05
